Assay: CC50 assay (CellTiter-Glo) in Huh-7 HCV replicon cells
Format: cell-based
Conditions: human, Table 2, 3 days incubation
recorded endpoint: CC50 at 3 days

Query: CC50 at 3 days; subject: CS(=O)(=O)c1cccc(-c2ccc3nc(NCc4ccc(-n5cncn5)nc4)nc(NCC(F)(F)F)c3n2)c1
1 to 10 µM

What do you get for C[C@@H](Nc1nc(NC2(C(F)(F)F)CC2)c2nc(-c3cccc(S(C)(=O)=O)c3)ccc2n1)c1ccc(-n2cncn2)cc1 ?
1 to 10 µM

Try this compound too: NS(=O)(=O)c1cccc(CNc2nc(NC3(C(F)(F)F)CC3)c3nc(-c4ccc(F)cc4)ccc3n2)c1
> 10 µM

Now consider C[C@@H](Nc1nc(NC2(C(F)(F)F)CCCCC2)c2nc(-c3ccc(F)cc3)ccc2n1)c1ccc(S(N)(=O)=O)cc1 .
> 10 µM

Subsequent entry: NS(=O)(=O)c1cc(Cl)cc(CNc2nc(NCC(F)(F)F)c3nc(C#CC4CC4)ccc3n2)c1
> 10 µM

Queued: Fc1ccc(-c2ccc3nc(NCc4ccc(-n5cncn5)cc4)nc(NC4(C(F)(F)F)CC4)c3n2)cc1
1 to 10 µM

// repeat for CS(=O)(=O)c1cccc(CNc2nc(NC3(C(F)(F)F)CC3)c3nc(-c4ccc(N5CCNC5=O)cc4)ccc3n2)c1 and report
1 to 10 µM

Entry Cc1ccc(-c2ccc3nc(NCc4cccc(S(C)(=O)=O)c4)nc(NC4(C(F)(F)F)CC4)c3n2)cc1S(C)(=O)=O please
1 to 10 µM

Also C[C@@H](Nc1nc(NCC(F)(F)F)c2nc(C#CC(C)(C)C)ccc2n1)c1ccc(S(N)(=O)=O)cc1 , if possible.
> 10 µM

Next: CCOc1ccc(-c2ccc3nc(NCc4ccc(-n5cncn5)cc4)nc(NCC(F)(F)F)c3n2)cc1S(N)(=O)=O
> 10 µM

// same read-out, input: C[C@@H](Nc1nc(NC2(C(F)(F)F)CC2)c2nc(-c3ccc(F)nc3)ccc2n1)c1ccc(S(N)(=O)=O)cc1
> 10 µM

And for CC(C)(C)NS(=O)(=O)c1cc(F)cc(CNc2nc(NC3(C(F)(F)F)CC3)c3nc(-c4ccc(Cl)c(S(C)(=O)=O)c4)ccc3n2)c1 ?
> 10 µM

Then what about the compound FC(F)Oc1ccc(-c2ccc3nc(NCc4ccc(-n5cncn5)cc4)nc(NCC(F)(F)F)c3n2)cn1 ?
> 10 µM

// next record COc1ccc(-c2ccc3nc(NCc4cccnc4)nc(NCC(F)(F)F)c3n2)cc1S(C)(=O)=O
1 to 10 µM

###

Assay: CC50 assay (CellTiter-Glo) in Huh-7 HCV replicon cells
Format: cell-based
Conditions: human, Table 2, 3 days incubation
Give CC50 at 3 days for every item shown.

What value of CC50 at 3 days has been recorded for this entry: CS(=O)(=O)c1cccc(CNc2nc(NC3(C(F)(F)F)CC3)c3nc(-c4ccc(F)cc4)ccc3n2)c1
> 10 µM

Let us now turn to C[C@@H](Nc1nc(OC2CCC2)c2nc(-c3cccc(S(C)(=O)=O)c3)ccc2n1)c1ccc(S(N)(=O)=O)cc1
> 10 µM

# repeat for COc1ccc(-c2ccc3nc(NCc4ccc(S(N)(=O)=O)cc4)nc(NCC(F)(F)F)c3n2)cc1S(=O)(=O)C(F)(F)F
1 to 10 µM

Please do the same for CS(=O)(=O)c1cccc(-c2ccc3nc(NCC(O)CO)nc(NCC(F)(F)F)c3n2)c1 (stereo not drawn) as well.
> 10 µM

Next up: Cc1nc(C)n(-c2ccc(CNc3nc(OC4(C)CC4)c4nc(-c5cccc(S(C)(=O)=O)c5)ccc4n3)cc2)n1
> 10 µM

# repeat for CCOc1ccc(-c2ccc3nc(NCc4ccc(-n5cncn5)cc4)nc(OC4(C)CC4)c3n2)cc1S(N)(=O)=O
1 to 10 µM

One more compound: COc1ccc(-c2ccc3nc(NCCS(N)(=O)=O)nc(NCC(F)(F)F)c3n2)cc1S(C)(=O)=O
> 10 µM

What do we get for C=Cc1ccc2nc(NCc3cc(Cl)cc(S(N)(=O)=O)c3)nc(OC3(C)CC3)c2n1 ?
> 10 µM

Also check CCOc1ccc(-c2ccc3nc(NCc4ccc(-n5cncn5)cc4)nc(NCC(F)(F)F)c3n2)cn1
> 10 µM

Subsequent entry: COc1ccc(-c2ccc3nc(NCc4ccc(-n5cncn5)cc4)nc(NCC(F)(F)F)c3n2)cc1S(N)(=O)=O
> 10 µM

Try the compound CC#Cc1ccc2nc(N[C@H](C)c3ccc(S(N)(=O)=O)cc3)nc(NCC(F)(F)F)c2n1
> 10 µM

Moving on to the next compound: CS(=O)(=O)c1cccc(-c2ccc3nc(NCc4ccc(-n5cncn5)cc4)nc(OC4CCC4)c3n2)c1
> 10 µM

And then C=Cc1ccc2nc(N[C@H](C)c3ccc(S(N)(=O)=O)cc3)nc(NCC(F)(F)F)c2n1 , what is it?
> 10 µM

Moving on to CC1(Oc2nc(NCc3ccc(-n4cncn4)cc3)nc3ccc(-c4cccc(S(C)(=O)=O)c4)nc23)CC1
1 to 10 µM

Also check C#Cc1ccc2nc(N[C@H](C)c3ccc(S(N)(=O)=O)cc3)nc(NCC(F)(F)F)c2n1
> 10 µM
